test system: Fibroblast; test: Multiplex assay against human fibroblast; type: toxicity, cell-based; conditions: 48 h, 10 µM, compound concentration 10 uM, replicate 1
Each record is given 1.0 if its reported Population Tubulin-Different-Phenotype (%) is strictly below 60%. Records at or above 60% are given 0.0.

O=C(O)c1ccc2cc(-c3ccc(O)c(C45CC6CC(CC(C6)C4)C5)c3)ccc2c1 :: 1.0
CC(=O)c1cc(-c2cc(C(=O)NC3CC3)ccc2C)c2ncccn12 :: 1.0
CCCn1c(=O)c2[nH]c(C34CC5CC(CC3C5)C4)nc2n(CCC)c1=O :: 0.0
Cl.Cl.Nc1ncnc2c1c(-c1cccc(OCc3ccccc3)c1)cn2[C@H]1C[C@@H](CN2CCC2)C1 :: 0.0
Nc1nc2c(c(N3CCNCC3)n1)CCC1=C2[C@@H]2CCCC[C@@H]2O1 :: 1.0
CNc1oc(-c2cccc3ccccc23)nc1C#N :: 1.0
CC(C)N1CCC(C)(C)c2cc(C#Cc3ccc(C(=O)O)cc3)ccc21 :: 1.0

We now examine a further compound.
Quick check: does CCC(=O)O[C@]1(C(=O)SCF)[C@H](C)C[C@H]2[C@@H]3C[C@H](F)C4=CC(=O)C=C[C@]4(C)[C@@]3(F)[C@@H](O)C[C@@]21C [FLUTICASONE PROPIONATE] have Population Tubulin-Different-Phenotype (%) under 60%?
1.0
